Recorded log10(IC50), one value per entry.
- Target under test: EGFR Del19/T790M/C797S (Homo sapiens, UniProt P00533, C797S/DEL746-750/T790M)
- Sequence (P00533 with tags, fused parts or gaps DEL746-750/T790M/C797S): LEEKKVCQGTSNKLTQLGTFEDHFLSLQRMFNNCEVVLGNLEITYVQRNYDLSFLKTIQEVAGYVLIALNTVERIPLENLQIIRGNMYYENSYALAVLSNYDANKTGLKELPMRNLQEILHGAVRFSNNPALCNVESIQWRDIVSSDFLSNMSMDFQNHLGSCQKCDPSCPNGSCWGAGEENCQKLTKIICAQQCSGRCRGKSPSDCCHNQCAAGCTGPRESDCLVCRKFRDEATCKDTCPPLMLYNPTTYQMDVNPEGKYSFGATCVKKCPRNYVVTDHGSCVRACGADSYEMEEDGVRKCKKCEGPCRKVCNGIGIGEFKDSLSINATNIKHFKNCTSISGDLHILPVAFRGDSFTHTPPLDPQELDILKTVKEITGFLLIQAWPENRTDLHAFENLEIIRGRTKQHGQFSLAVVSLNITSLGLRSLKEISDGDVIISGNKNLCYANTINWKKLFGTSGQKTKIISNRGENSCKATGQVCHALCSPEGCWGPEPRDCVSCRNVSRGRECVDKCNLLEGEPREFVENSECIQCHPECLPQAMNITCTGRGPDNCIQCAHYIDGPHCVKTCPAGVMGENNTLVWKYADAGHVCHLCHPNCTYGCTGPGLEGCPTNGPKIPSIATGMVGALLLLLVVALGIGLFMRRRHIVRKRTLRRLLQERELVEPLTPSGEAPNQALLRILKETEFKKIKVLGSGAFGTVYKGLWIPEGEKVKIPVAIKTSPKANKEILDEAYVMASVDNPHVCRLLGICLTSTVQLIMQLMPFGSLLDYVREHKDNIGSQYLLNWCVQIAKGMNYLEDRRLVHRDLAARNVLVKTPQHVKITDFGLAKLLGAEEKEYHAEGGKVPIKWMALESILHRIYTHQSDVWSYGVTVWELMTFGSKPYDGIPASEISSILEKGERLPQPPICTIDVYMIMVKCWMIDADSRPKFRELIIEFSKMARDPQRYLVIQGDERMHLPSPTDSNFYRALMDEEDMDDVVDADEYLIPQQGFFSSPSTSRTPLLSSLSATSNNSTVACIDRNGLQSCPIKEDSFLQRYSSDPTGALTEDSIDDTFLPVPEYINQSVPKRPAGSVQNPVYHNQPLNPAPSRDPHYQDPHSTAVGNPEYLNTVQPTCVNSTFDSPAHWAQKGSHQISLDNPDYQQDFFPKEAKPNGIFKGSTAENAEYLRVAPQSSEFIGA
- Measurement protocol: Biochemical EGFR kinase inhibition assay (Lance Ultra TR-FRET), triple mutant del19/T790M/C797S
- Stated conditions: ATP at Km; read-out: IC50 Del19/T790M/C797S (nM), Km ATP
Recorded endpoint: log10(IC50) (log10 of the value in nM)

Compound	log10(IC50)
CC1(CO)CCN(c2cc(Nc3ccnc(-c4cnn(S(=O)(=O)C5CC5)c4)n3)ncc2C#Cc2cnc(C(F)(F)F)s2)CC1	0.69
O=S(=O)(C1CC1)n1cc(-c2nccc(Nc3cc(N[C@H]4CC[C@@H](O)CC4)c(C#Cc4cccc(NCCN5CCOCC5)c4)cn3)n2)cn1	0.46
Cn1cc(C#Cc2cnc(Nc3ccnc(Nc4ccccc4S(C)(=O)=O)n3)cc2N2CCC(C)(CO)CC2)cn1	-0.15
CC1(O)CCC(Nc2cc(Nc3ccnc(-c4cnn(S(=O)(=O)C5CC5)c4)n3)ncc2C#Cc2cnn(C3CC3(F)F)c2)CC1 (centres unmarked)	0.28
CC1(O)CCN(c2cc(Nc3ccnc(-c4cnn(S(=O)(=O)C5CC5)c4)n3)ncc2C#Cc2cccnc2)CC1	-0.30
CC1(CO)CCN(c2cc(Nc3ccnc(-c4cnn(S(=O)(=O)C5CC5)c4)n3)ncc2C#CCC(F)(F)F)CC1	0.00
CNCCC1CCN(c2cc(Nc3ccnc(-c4cnn(S(=O)(=O)C5CC5)c4)n3)ncc2C#Cc2cnn(C)c2)CC1	-1.00
CC1(CO)CCN(c2cc(Nc3ccnc(-c4cnn(S(=O)(=O)C5CC5)c4)n3)ncc2C#Cc2cnn(C3CCOC3)c2)CC1 (centres unmarked)	-0.10
CN1CCC(C#Cc2cnc(Nc3ccnc(-c4cnn(S(=O)(=O)C5CC5)c4)n3)cc2NC2CCC(O)CC2)C1 (centres unmarked)	-1.00
Cc1cnc(C#Cc2cnc(Nc3ccnc(-c4cnn(S(=O)(=O)C5CC5)c4)n3)cc2N[C@@H]2CCC[C@H](O)C2)cn1	-0.05
O=S(=O)(C1CC1)n1cc(-c2nccc(Nc3cc(N[C@H]4CC[C@@H](O)CC4)c(C#Cc4ccc(CN5CCOCC5)s4)cn3)n2)cn1	0.26
Cn1cc(C#Cc2cnc(Nc3ccnc(-c4cnn(S(=O)(=O)C5CC5)c4)n3)cc2N2CCC3(CCNC3)CC2)cn1	-1.00
CC(C)Nc1cc(Nc2ccnc(-c3cnn(S(=O)(=O)C4CC4)c3)n2)ncc1C#CCN1CCS(=O)(=O)CC1	0.23
CC1(CO)CCN(c2cc(Nc3ccnc(-c4cnn(S(=O)(=O)C5CC5)c4)n3)ncc2C#Cc2ccccn2)CC1	-0.22

====

Recorded log10 of IC50, one value per entry.
- Target under test: EGFR L858R/T790M/C797S (Homo sapiens, UniProt P00533, C797S/L858R/T790M)
- Sequence (P00533 25-1210 T790M/C797S/L858R): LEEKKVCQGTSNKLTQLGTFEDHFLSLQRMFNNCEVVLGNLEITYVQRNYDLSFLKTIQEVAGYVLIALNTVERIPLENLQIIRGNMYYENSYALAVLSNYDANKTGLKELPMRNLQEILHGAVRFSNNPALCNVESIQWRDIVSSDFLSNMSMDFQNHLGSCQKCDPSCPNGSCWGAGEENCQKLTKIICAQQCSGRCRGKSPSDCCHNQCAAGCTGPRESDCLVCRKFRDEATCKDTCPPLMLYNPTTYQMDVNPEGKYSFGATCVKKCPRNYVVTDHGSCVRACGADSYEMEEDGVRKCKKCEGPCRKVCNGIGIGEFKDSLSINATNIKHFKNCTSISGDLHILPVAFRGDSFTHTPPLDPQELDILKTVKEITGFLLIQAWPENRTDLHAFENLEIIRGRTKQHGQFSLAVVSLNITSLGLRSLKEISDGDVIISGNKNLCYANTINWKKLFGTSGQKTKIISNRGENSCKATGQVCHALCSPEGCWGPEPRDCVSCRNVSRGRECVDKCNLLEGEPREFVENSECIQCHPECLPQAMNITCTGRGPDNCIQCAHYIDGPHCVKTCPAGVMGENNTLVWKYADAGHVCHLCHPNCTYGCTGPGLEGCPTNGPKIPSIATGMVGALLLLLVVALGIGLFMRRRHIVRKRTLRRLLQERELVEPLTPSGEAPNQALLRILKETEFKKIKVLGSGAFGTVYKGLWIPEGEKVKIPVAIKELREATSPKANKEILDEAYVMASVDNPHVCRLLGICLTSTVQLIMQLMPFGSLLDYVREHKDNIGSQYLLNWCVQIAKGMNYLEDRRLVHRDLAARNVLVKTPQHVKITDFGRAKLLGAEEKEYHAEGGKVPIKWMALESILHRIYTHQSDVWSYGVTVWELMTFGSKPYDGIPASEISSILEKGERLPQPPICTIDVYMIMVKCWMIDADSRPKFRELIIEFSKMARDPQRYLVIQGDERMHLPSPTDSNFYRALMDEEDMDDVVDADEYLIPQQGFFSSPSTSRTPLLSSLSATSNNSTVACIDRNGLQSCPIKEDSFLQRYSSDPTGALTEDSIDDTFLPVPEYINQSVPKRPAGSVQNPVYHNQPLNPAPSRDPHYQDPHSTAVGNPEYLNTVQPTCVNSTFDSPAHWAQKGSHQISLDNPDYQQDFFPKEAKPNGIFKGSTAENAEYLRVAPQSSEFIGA
- Measurement protocol: Biochemical EGFR kinase inhibition assay (Lance Ultra TR-FRET), triple mutant L858R/T790M/C797S
- Stated conditions: IC50 L858R/T790M/C797S (nM), 100 μM ATP
- Experimental: Biochemical EGFR kinase assays were conducted using Lance Ultra time-resolved fluorescence resonance energy transfer (TR-FRET) technology from Perkin-Elmer. […] Each kinase reactions were incubated at room temperature for 1 hour and then stopped by the addition of 4 μL of stop solution (10 mM EDTA). […] After 60 minutes incubation at room temperature the LANCE signal was measured on an EnVision Multilabel Reader (Perkin-Elmer). […]
Recorded endpoint: log10 of IC50 (log10 of the value in nM)

Molecule	Target under test	log10 of IC50
CC1(CO)CCN(c2cc(Nc3ccnc(-c4cnn(S(=O)(=O)C5CC5)c4)n3)ncc2C#CC2COC2)CC1	EGFR L858R/T790M/C797S (Homo sapiens, UniProt P00533, C797S/L858R/T790M)	-0.70
O=C(c1ccc(C#Cc2cnc(Nc3ccnc(-c4cnn(S(=O)(=O)C5CC5)c4)n3)cc2NC[C@H]2CC[C@H](CO)CC2)cc1)N1CCC(O)CC1	EGFR L858R/T790M/C797S (Homo sapiens, UniProt P00533, C797S/L858R/T790M)	0.60
CC1(CO)CCN(c2cc(Nc3ccnc(-c4cnn(S(=O)(=O)C5CC5)c4)n3)ncc2C#CCC(F)(F)F)CC1	EGFR L858R/T790M/C797S (Homo sapiens, UniProt P00533, C797S/L858R/T790M)	0.56
O=C(N1CCC(C#Cc2cnc(Nc3ccnc(-c4cnn(S(=O)(=O)C5CC5)c4)n3)cc2NC2CCC(CO)CC2)C1)C(F)(F)F (stereo not drawn)	EGFR L858R/T790M/C797S (Homo sapiens, UniProt P00533, C797S/L858R/T790M)	-0.70
Cn1cc(C#Cc2cnc(Nc3ccnc(-c4cnn(S(=O)(=O)C5CC5)c4)n3)cc2N2CCC(OC(F)(F)F)CC2)cn1	EGFR L858R/T790M/C797S (Homo sapiens, UniProt P00533, C797S/L858R/T790M)	1.44
CC1(C#Cc2cnc(Nc3ccnc(-c4cnn(S(=O)(=O)C5CC5)c4)n3)cc2N[C@H]2CC[C@@H](O)CC2)COC1	EGFR L858R/T790M/C797S (Homo sapiens, UniProt P00533, C797S/L858R/T790M)	1.14

====

- Target under test: EGFR Del19/T790M/C797S (Homo sapiens, UniProt P00533, C797S/DEL746-750/T790M)
- Measurement protocol: Biochemical EGFR kinase inhibition assay (Lance Ultra TR-FRET), triple mutant del19/T790M/C797S
- Stated conditions: IC50 Del19/T790M/C797S (nM), 100 μM ATP
Recorded IC50, one value per entry.
Recorded endpoint: IC50 (nM)

Molecule	Experimental result
Cn1cc(C#Cc2cnc(Nc3ccnc(-c4cnn(S(=O)(=O)C5CC5)c4)n3)cc2N2CCCC(O)C2)cn1 (stereo not shown) [Example 6]	0.5
CNCC1(C)CCN(c2cc(Nc3ccnc(-c4cnn(S(=O)(=O)C5CC5)c4)n3)ncc2C#Cc2cnn(C)c2)CC1 [Example 146]	0.2
CC1(CO)CCN(c2cc(Nc3ccnc(-c4cnn(S(=O)(=O)C5CC5)c4)n3)ncc2C#Cc2ncc(CN3CCOCC3)cn2)CC1 [Example 193]	0.6
CC1OCCC1C#Cc1cnc(Nc2ccnc(-c3cnn(S(=O)(=O)C4CC4)c3)n2)cc1NC1CCC(CO)CC1 (stereo not shown) [Example 430]	1
CC(C)(CO)CNc1cc(Nc2ccnc(-c3cnn(S(=O)(=O)C4CC4)c3)n2)ncc1C#Cc1cnn(CCF)c1 [Example 40]	4.8
CC1(CO)CCN(c2cc(Nc3ccnc(-c4cnn(S(=O)(=O)C5CC5)c4)n3)ncc2C#Cc2cnn(CC(F)(F)F)c2)CC1 [Example 348]	2.1
CN(C)C[C@H]1CC[C@@H](Nc2cc(Nc3ccnc(-c4cnn(S(=O)(=O)C5CC5)c4)n3)ncc2C#Cc2cnn(CC3CC3)c2)CC1 [Example 309]	1

====

- Target under test: EGFR Del19/C797S (Homo sapiens, UniProt P00533, C797S/DEL746-750)
- Sequence (P00533 with tags, fused parts or gaps DEL746-750/C797S): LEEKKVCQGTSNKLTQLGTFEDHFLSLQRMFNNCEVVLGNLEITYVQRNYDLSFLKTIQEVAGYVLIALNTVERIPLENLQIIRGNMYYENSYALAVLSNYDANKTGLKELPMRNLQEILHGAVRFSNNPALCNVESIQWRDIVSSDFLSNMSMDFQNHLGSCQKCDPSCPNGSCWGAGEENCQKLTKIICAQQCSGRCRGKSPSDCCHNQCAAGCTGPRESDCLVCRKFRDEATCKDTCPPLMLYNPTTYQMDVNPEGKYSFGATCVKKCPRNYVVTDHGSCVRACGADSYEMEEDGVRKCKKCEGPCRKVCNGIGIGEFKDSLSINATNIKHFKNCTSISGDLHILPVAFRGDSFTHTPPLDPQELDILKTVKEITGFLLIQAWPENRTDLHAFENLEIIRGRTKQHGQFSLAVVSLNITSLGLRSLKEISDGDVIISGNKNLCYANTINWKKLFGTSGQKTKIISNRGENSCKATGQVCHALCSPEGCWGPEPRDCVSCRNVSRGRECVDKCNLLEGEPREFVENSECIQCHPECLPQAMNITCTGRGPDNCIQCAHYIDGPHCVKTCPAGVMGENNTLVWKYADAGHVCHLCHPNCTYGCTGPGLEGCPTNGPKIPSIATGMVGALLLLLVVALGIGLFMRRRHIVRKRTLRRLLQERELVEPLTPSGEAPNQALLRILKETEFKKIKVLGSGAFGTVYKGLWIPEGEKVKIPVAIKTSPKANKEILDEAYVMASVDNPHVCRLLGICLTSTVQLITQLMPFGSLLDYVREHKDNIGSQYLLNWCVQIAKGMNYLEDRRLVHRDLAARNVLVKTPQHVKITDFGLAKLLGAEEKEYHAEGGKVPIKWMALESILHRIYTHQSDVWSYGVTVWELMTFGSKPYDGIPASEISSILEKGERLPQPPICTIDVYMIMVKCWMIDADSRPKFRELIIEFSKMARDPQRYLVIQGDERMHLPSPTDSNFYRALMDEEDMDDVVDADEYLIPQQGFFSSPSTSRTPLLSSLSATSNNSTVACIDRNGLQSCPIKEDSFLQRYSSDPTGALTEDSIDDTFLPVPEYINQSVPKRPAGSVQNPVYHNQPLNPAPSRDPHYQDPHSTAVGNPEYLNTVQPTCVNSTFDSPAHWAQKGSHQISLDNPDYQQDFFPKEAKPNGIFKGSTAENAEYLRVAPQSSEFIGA
- Measurement protocol: Biochemical EGFR kinase inhibition assay (Lance Ultra TR-FRET), double mutant del19/C797S
- Stated conditions: IC50 Del19/C797S (nM), 100 μM ATP
Recorded IC50, one value per entry.

Structure smiles string	IC50, nM
CC(C)Nc1cc(Nc2ccnc(-c3cnn(S(=O)(=O)C4CC4)c3)n2)ncc1C#Cc1csc(CF)n1	1000
O=S(=O)(C1CC1)n1cc(-c2nccc(Nc3cc(N[C@H]4CC[C@@H](CO)CC4)c(C#Cc4cnn(CCF)c4)cn3)n2)cn1	3.9
CN(C)CC1(O)CCN(c2cc(Nc3ccnc(-c4cnn(S(=O)(=O)C5CC5)c4)n3)ncc2C#Cc2cnn(C3CC3)c2)CC1	56.7
Cn1cc(C#Cc2cnc(Nc3ccnc(-c4cnn(S(=O)(=O)C5CC5)c4)n3)cc2N[C@H]2CCC[C@H](O)C2)cn1	1.7
CN1CCC2(CC1)CCN(c1cc(Nc3ccnc(-c4cnn(S(=O)(=O)C5CC5)c4)n3)ncc1C#Cc1cnn(C3CC3)c1)CC2	3.2
Cn1cc(C#Cc2cnc(Nc3ccnc(-c4cnn(S(=O)(=O)C5CC5)c4)n3)cc2N2CCC3(CC2)CC(C)(O)C3)cn1	3.3

====

- Target under test: EGFR L858R/C797S (Homo sapiens, UniProt P00533, C797S/L858R)
- Sequence (P00533 25-1210 C797S/L858R): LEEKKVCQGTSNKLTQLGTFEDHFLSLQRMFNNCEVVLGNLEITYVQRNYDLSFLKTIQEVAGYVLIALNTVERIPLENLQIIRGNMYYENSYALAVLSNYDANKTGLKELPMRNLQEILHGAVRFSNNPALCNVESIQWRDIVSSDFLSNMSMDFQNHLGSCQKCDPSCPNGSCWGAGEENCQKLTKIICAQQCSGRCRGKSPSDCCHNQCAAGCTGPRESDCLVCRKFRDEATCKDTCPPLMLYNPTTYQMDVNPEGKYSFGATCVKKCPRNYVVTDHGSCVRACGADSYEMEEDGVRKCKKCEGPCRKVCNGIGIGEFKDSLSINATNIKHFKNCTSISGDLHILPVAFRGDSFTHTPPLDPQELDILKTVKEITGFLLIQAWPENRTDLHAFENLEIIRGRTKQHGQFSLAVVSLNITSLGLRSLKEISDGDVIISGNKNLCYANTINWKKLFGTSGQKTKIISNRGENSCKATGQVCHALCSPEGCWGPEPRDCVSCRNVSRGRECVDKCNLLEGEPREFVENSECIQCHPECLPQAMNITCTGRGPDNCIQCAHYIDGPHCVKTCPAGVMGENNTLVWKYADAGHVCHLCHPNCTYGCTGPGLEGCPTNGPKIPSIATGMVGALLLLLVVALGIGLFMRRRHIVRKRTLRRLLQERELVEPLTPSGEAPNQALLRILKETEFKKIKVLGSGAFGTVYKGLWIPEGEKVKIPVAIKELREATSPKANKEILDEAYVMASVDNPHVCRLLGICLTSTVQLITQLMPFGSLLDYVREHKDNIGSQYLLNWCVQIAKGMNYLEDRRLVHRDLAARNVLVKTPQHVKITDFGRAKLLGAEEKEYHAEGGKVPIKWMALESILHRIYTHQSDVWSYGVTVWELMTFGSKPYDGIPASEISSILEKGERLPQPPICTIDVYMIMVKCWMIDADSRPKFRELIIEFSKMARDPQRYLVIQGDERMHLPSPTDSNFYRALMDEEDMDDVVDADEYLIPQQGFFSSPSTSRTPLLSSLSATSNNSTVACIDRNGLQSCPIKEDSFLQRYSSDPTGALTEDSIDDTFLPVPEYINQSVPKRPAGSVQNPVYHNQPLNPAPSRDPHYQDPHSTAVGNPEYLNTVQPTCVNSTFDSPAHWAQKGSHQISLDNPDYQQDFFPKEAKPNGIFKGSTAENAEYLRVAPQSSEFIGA
- Measurement protocol: Biochemical EGFR kinase inhibition assay (Lance Ultra TR-FRET), double mutant L858R/C797S
- Stated conditions: IC50 L858R/C797S (nM), 100 μM ATP

Structure smiles string	Value unit	IC50
Cn1cc(C#Cc2cnc(Nc3ccnc(-c4cnn(S(=O)(=O)C5CC5)c4)n3)cc2N[C@H]2CCC[C@H](O)C2)cn1	nM	8.9
CC1(CO)CCN(c2cc(Nc3ccnc(-c4cnn(S(=O)(=O)C5CC5)c4)n3)ncc2C#Cc2cccc(C(=O)N3CCOCC3)c2)CC1	nM	4.2
O=S(=O)(C1CC1)n1cc(-c2nccc(Nc3cc(N[C@H]4CC[C@@H](CO)CC4)c(C#Cc4cnn(C(F)F)c4)cn3)n2)cn1	nM	75
O=S(=O)(C1CC1)n1cc(-c2nccc(Nc3cc(N[C@H]4CC[C@@H](O)CC4)c(C#Cc4ccsc4)cn3)n2)cn1	nM	238
CC1(O)CC2(CCN(c3cc(Nc4ccnc(-c5cnn(S(=O)(=O)C6CC6)c5)n4)ncc3C#Cc3cnn(CC(F)(F)F)c3)CC2)C1	nM	11.7
CC1(CO)CCN(c2cc(Nc3ccnc(-c4cnn(S(=O)(=O)C5CC5)c4)n3)ncc2C#Cc2ccc(CN3CCOCC3)cc2)CC1	nM	81.2
